biological target: Adenosine receptor A1 (Homo sapiens); test: Displacement of [3H]DPCPX from human A1 adenosine receptor expressed in CHO cells at 1 uM after 120 mins by scintillation counting analysis; format: cell-based
reported endpoint: inhibition (%)
// note: answer is a bare numeric in %

## Input I have this compound here, `O=C(Nc1nc(-c2ccccc2)nc2cn(-c3ccccc3)nc12)c1ccncc1` , and I need its recorded inhibition.
## Output 1

## Input `CC(=O)Nc1nc(C)nc2cn(-c3ccccc3)nc12` ?
## Output 25

## Input `Cc1nc(NC(=O)NCc2ccccc2)c2nn(-c3ccccc3)cc2n1` ?
## Output 26

## Input `Cc1nc(N(C(=O)c2ccco2)C(=O)c2ccco2)c2nn(-c3ccccc3)cc2n1` ?
## Output 4

## Input `COc1ccc(-n2cc3nc(-c4ccccc4)nc(NC(C)=O)c3n2)cc1` ?
## Output 1

----------
Here the recorded inhibition is given for each entry.
molecular target: Adenosine receptor A2a (Homo sapiens, UniProt P29274); test: Displacement of [3H]ZM241385 from human A2A adenosine receptor expressed in CHO cells at 1 uM after 60 mins by scintillation counting analysis; type: cell-based
Sequence (P29274 whole entry): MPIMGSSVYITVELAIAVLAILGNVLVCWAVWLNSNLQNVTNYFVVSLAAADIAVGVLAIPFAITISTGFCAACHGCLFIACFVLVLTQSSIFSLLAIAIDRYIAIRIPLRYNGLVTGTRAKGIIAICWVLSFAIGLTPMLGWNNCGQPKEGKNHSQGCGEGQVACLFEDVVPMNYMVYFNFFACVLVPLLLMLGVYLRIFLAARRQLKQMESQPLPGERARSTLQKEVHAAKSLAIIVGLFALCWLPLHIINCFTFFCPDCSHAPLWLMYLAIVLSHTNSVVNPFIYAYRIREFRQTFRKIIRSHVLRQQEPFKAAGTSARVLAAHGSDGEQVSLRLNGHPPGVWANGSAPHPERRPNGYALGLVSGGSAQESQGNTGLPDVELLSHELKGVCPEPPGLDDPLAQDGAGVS
// note: answer is a bare numeric in %

## Input GET /values?readout=inhibition&system=Adenosine receptor A2a (Homo sapiens, UniProt P29274)&item= `O=C(Nc1nc(-c2ccccc2)nc2cn(-c3ccccc3)nc12)c1cccnc1`
## Output 1

## Input `O=C(c1ccco1)N(C(=O)c1ccco1)c1nc(-c2ccccc2)nc2cn(-c3ccccc3)nc12` ?
## Output 1

----------
target: Adenosine receptor A1 (Homo sapiens) (UniProt P30542); assay: Displacement of [3H]DPCPX from human A1 adenosine receptor expressed in CHO cells at 1 uM after 120 mins by scintillation counting analysis; type: cell-based
Sequence (P30542 whole entry): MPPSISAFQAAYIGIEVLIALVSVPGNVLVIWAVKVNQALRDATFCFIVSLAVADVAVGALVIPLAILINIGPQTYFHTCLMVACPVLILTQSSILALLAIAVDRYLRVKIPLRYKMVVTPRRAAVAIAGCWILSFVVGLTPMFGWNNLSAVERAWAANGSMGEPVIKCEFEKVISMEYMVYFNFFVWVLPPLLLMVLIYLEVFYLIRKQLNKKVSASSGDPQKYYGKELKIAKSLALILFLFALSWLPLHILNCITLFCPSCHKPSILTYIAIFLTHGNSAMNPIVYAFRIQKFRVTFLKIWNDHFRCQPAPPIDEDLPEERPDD
Quick rule for you: inhibition at 5% or higher means condition met, lower means condition not met.

| smiles text | label class |
| --- | --- |
| COc1ccc(-n2cc3nc(C)nc(NC(=O)NCc4ccccc4)c3n2)cc1 | condition met |

## Input Entry `COc1ccc(-n2cc3nc(C)nc(NC(=O)Cc4ccccc4)c3n2)cc1` : is its inhibition no less than 5%?
## Output condition met

## Input `O=C(Nc1nc(-c2ccccc2)nc2cn(-c3ccccc3)nc12)c1ccco1` ?
## Output condition met

## Input `O=C(Nc1nc(-c2ccccc2)nc2cn(-c3ccccc3)nc12)c1cccnc1` ?
## Output condition not met

----------
Data export: Ki values recorded with Adenosine receptor A3 (Homo sapiens, UniProt P0DMS8).
Sequence (P0DMS8 whole entry): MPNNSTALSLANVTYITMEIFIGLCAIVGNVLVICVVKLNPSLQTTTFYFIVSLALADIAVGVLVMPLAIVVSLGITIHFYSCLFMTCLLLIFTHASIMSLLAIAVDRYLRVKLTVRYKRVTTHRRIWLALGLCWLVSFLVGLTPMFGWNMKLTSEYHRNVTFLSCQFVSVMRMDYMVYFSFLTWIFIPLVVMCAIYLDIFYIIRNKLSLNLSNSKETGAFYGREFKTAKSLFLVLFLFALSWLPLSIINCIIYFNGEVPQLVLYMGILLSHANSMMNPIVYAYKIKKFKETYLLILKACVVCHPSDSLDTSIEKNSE
// note: answer is a bare numeric in nM

Take a look at these entries with their results.
| smiles text | uom | observed result |
| --- | --- | --- |
| Cc1nc(N(C(=O)c2ccco2)C(=O)c2ccco2)c2nn(-c3ccccc3)cc2n1 | nM | 33 |
| COc1ccc(-n2cc3nc(C)nc(NC(=O)c4ccccc4)c3n2)cc1 | nM | 35 |
| Cc1nc(NC(=O)c2cccnc2)c2nn(-c3ccccc3)cc2n1 | nM | 5.3 |

## Input I have this compound here, `COc1ccc(-n2cc3nc(C)nc(NC(C)=O)c3n2)cc1` , and I need its recorded Ki.
## Output 100

## Input `Cc1nc(NC(=O)c2ccccc2)c2nn(-c3ccccc3)cc2n1` ?
## Output 5.6

## Input `CC(=O)Nc1nc(-c2ccccc2)nc2cn(-c3ccccc3)nc12` ?
## Output 32

## Input `O=C(Nc1nc(-c2ccccc2)nc2cn(-c3ccccc3)nc12)c1ccco1` ?
## Output 24
